The reported measurements were obtained from the RNAGym collection of RNA variant scans (doi:10.7554/elife.80360).

B1: CPEB3 Ribozyme (parent)
chain: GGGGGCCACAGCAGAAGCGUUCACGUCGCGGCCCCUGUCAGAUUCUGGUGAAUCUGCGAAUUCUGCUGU

- Variants of: B1
- Assay Comment: self-cleavage, relative activity (ratio to wild type); higher = more cleavage; co-transcriptional
Measured Metric: self-cleavage

{"Variant Annotation": "C33G U36A", "Measured Metric": "self-cleavage", "Readout Number": 0.13}
{"Variant Annotation": "C18A C33G", "Measured Metric": "self-cleavage", "Readout Number": 0.123}
{"Variant Annotation": "C54A G58C", "Measured Metric": "self-cleavage", "Readout Number": 0.857}
{"Variant Annotation": "C45U U61A", "Measured Metric": "self-cleavage", "Readout Number": 0.919}
{"Variant Annotation": "A13G G37U", "Measured Metric": "self-cleavage", "Readout Number": 0.184}
{"Variant Annotation": "C7A C12G", "Measured Metric": "self-cleavage", "Readout Number": 0.378}
{"Variant Annotation": "C22U U69G", "Measured Metric": "self-cleavage", "Readout Number": 0.462}
{"Variant Annotation": "C6U G30C", "Measured Metric": "self-cleavage", "Readout Number": 0.348}
{"Variant Annotation": "G19U U64A", "Measured Metric": "self-cleavage", "Readout Number": 0.233}
{"Variant Annotation": "C33U A59G", "Measured Metric": "self-cleavage", "Readout Number": 0.959}
{"Variant Annotation": "C34G A51G", "Measured Metric": "self-cleavage", "Readout Number": 0.625}
{"Variant Annotation": "U46G U61A", "Measured Metric": "self-cleavage", "Readout Number": 0.958}
{"Variant Annotation": "G11A C57U", "Measured Metric": "self-cleavage", "Readout Number": 0.332}
{"Variant Annotation": "C34U U69C", "Measured Metric": "self-cleavage", "Readout Number": 1.07}
{"Variant Annotation": "A13C A59C", "Measured Metric": "self-cleavage", "Readout Number": 0.395}
{"Variant Annotation": "G50C C57U", "Measured Metric": "self-cleavage", "Readout Number": 0.384}
{"Variant Annotation": "U20G C45G", "Measured Metric": "self-cleavage", "Readout Number": 0.11}
{"Variant Annotation": "A16G U38A", "Measured Metric": "self-cleavage", "Readout Number": 0.767}
{"Variant Annotation": "G47C U62A", "Measured Metric": "self-cleavage", "Readout Number": 1}
{"Variant Annotation": "G5A C45U", "Measured Metric": "self-cleavage", "Readout Number": 0.913}
{"Variant Annotation": "U26A C32U", "Measured Metric": "self-cleavage", "Readout Number": 0.869}
{"Variant Annotation": "A23G C24A", "Measured Metric": "self-cleavage", "Readout Number": 0.711}
{"Variant Annotation": "C12G A40G", "Measured Metric": "self-cleavage", "Readout Number": 0.672}
{"Variant Annotation": "G4U C57U", "Measured Metric": "self-cleavage", "Readout Number": 0.211}
{"Variant Annotation": "G47A C66G", "Measured Metric": "self-cleavage", "Readout Number": 0.953}
{"Variant Annotation": "C34A C35U", "Measured Metric": "self-cleavage", "Readout Number": 0.226}
{"Variant Annotation": "U61G U67A", "Measured Metric": "self-cleavage", "Readout Number": 0.841}
{"Variant Annotation": "G1U A10U", "Measured Metric": "self-cleavage", "Readout Number": 0.127}
{"Variant Annotation": "U20A C34U", "Measured Metric": "self-cleavage", "Readout Number": 0.0989}
{"Variant Annotation": "G11A C39G", "Measured Metric": "self-cleavage", "Readout Number": 0.646}
{"Variant Annotation": "G1U U61A", "Measured Metric": "self-cleavage", "Readout Number": 0.0989}
{"Variant Annotation": "G2U G14U", "Measured Metric": "self-cleavage", "Readout Number": 0.0888}
{"Variant Annotation": "A13U A16U", "Measured Metric": "self-cleavage", "Readout Number": 0.34}
{"Variant Annotation": "G4U U53C", "Measured Metric": "self-cleavage", "Readout Number": 0.323}
{"Variant Annotation": "G17U C57U", "Measured Metric": "self-cleavage", "Readout Number": 0.228}
{"Variant Annotation": "C6G U21C", "Measured Metric": "self-cleavage", "Readout Number": 0.312}
